Reference source for all entries: PubChem BioAssay AID248

# Tested on: L1210 leukemia ip in BDF1 mice, survival T/C
# Assay comment: NCI In Vivo Anticancer Drug Screen. Data for tumor model L1210 Leukemia (intraperitoneal) in B6D2F1 (BDF1) mice
# Assay setup: endpoint: mean survival time; dose: 50.0 mg/kg/injection; schedule: Q01DX009 (ip); vehicle: saline; higher = longer survival
Inconclusive results and toxic doses are left out.
Each record here notes measured T/C.

Request the reported T/C associated with "Cc1noc(N)c1[N+](=O)[O-]"
97 % of control

Request the reported T/C associated with CC(C)(CO)NC=O (tested in a mixture with another compound)
107 % of control

Request the reported T/C associated with CC(N)Cc1ccc(O)cc1 (stereo unspecified)
103 % of control

Request the reported T/C associated with "CS(=O)(=O)c1nc(N)nc2nc[nH]c12"
102 % of control

Request the reported T/C associated with "Cc1cccc(N2CCN(CCO)CC2)c1"
106 % of control

Request the reported T/C associated with "CN(C)CCC=C1c2ccccc2C=Cc2ccccc21"
109 % of control

Continuing:
Request the reported T/C associated with "Cc1cnc2c(N)nn(C)c2n1"
102 % of control

Request the reported T/C associated with "CC(=O)Nc1ccc(Cl)cc1C(=O)c1ccc[nH]1"
110 % of control

Request the reported T/C associated with COc1cc2c(cc1OC)C(CN)C2 (stereo unspecified)
101 % of control

Request the reported T/C associated with COc1ccc(OC)c(OC)c1CC(C)N (stereo unspecified)
104 % of control

Request the reported T/C associated with "Cc1ccc2c(c1)P(=O)(O)c1cc(Cl)ccc1O2"
98 % of control

---

Each record here notes measured T/C.
# Test system: L1210 leukemia ip in BDF1 mice, survival T/C
# Assay comment: NCI In Vivo Anticancer Drug Screen. Data for tumor model L1210 Leukemia (intraperitoneal) in B6D2F1 (BDF1) mice
# Assay setup: endpoint: mean survival time; dose: 400.0 mg/kg/injection; schedule: Q04DX003 (ip); vehicle: other; higher = longer survival
Inconclusive results and toxic doses are left out. Square brackets hold non-standard residues; d marks the D form. Peptide text beside a SMILES is read from it. * marks the point of attachment. ξ: configuration not given here. Cbz = O=C(OCc1ccccc1)*; ξI = CCC(C)C(N)C(=O)O; OBn = c1ccc(CO*)cc1

Request the reported T/C associated with CCC1(C)CC1(Cl)Cl (centres undefined)
100 % of control

Request the reported T/C associated with "Cc1noc(N)c1[N+](=O)[O-]"
92 % of control

Continuing:
Request the reported T/C associated with "CC(=O)[O][Sn]([CH2]c1ccccc1)([CH2]c1ccccc1)[O]C(C)=O"
95 % of control

Request the reported T/C associated with CCC(C)C(NC(=O)CNC(=O)OCc1ccccc1)C(=O)OCc1ccccc1 (stereo not drawn) (Cbz-Gly-[ξI]-OBn)
103 % of control

---

Each record here notes measured T/C.
# Tested on: L1210 leukemia ip in BDF1 mice, survival T/C
# Assay comment: NCI In Vivo Anticancer Drug Screen. Data for tumor model L1210 Leukemia (intraperitoneal) in B6D2F1 (BDF1) mice
# Assay setup: endpoint: mean survival time; dose: 400.0 mg/kg/injection; schedule: Q04DX002 (ip); vehicle: saline; higher = longer survival
Toxic doses and inconclusive results are not listed.

Give recorded T/C with L1210 leukemia ip in BDF1 mice, survival T/C for the following compound: "O=C(CC1OCCO1)c1ccccc1"
95 % of control

Give recorded T/C with L1210 leukemia ip in BDF1 mice, survival T/C for the following compound: "CCOC(=O)c1ccc(NC(=O)Sc2ccccc2C)cc1"
87 % of control

Give recorded T/C with L1210 leukemia ip in BDF1 mice, survival T/C for the following compound: "C/C(CN(C)C)=N\O"
92 % of control

Continuing:
Give recorded T/C with L1210 leukemia ip in BDF1 mice, survival T/C for the following compound: CCCOCCOCCOC(C)Oc1cc(OC)ccc1OC (stereo not given)
96 % of control

Give recorded T/C with L1210 leukemia ip in BDF1 mice, survival T/C for the following compound: CCCCCOC(c1ccc2c(c1)OCO2)C(C)Br (stereo not given)
90 % of control

---

# Tested on: L1210 leukemia ip in BDF1 mice, survival T/C
# Assay comment: NCI In Vivo Anticancer Drug Screen. Data for tumor model L1210 Leukemia (intraperitoneal) in B6D2F1 (BDF1) mice
# Assay setup: endpoint: mean survival time; dose: 100.0 mg/kg/injection; schedule: Q01DX009 (ip); vehicle: Klucel (hydroxypropylcellulose) (HPC); higher = longer survival
Toxic doses and inconclusive results are not listed.
Each record here notes measured T/C.

Consider the worked cases shown below.
Request the reported T/C associated with "CN(C(=O)/C=C/c1ccccc1)C1CCCCC1"
101 % of control

Request the reported T/C associated with "CCCCCCCCCCCC(=O)Nc1ccc(N(C)C(C)=O)cc1"
90 % of control

Request the reported T/C associated with NC(=O)NOCC1NC(=O)C(CONC(N)=O)NC1=O (stereo unspecified)
93 % of control

Request the reported T/C associated with "Cc1c(N=CN(C)C)c(=O)n(-c2ccccc2)n1C"
94 % of control

Request the reported T/C associated with COC(=O)C(c1ccccc1)C(Br)C(=O)c1ccc(Cl)cc1 (stereo unspecified)
92 % of control

Continuing:
Request the reported T/C associated with "NS(=O)(=O)c1ccc(N=Nc2ncc[nH]2)cc1"
94 % of control

Request the reported T/C associated with O=C1NC(c2cccc3ccccc23)Nc2cc(Cl)ccc21 (stereo unspecified)
112 % of control

Request the reported T/C associated with "O=C(Nc1ccc(Cl)c([N+](=O)[O-])c1)Oc1ccccc1F"
92 % of control

Request the reported T/C associated with CC(C)C1C(C)N1C(C)C (stereo unspecified)
104 % of control

Request the reported T/C associated with "S=P(/C=C/c1ccccc1)(c1ccccc1)c1ccccc1"
97 % of control

Request the reported T/C associated with "c1ccc(-c2cnoc2-c2ccccc2)cc1"
107 % of control

Request the reported T/C associated with O=C1OC(=O)C2=C1C1C3C=CCC3C2N2C=CC=CC12 (stereo unspecified)
103 % of control

Request the reported T/C associated with "CC(=O)Oc1c(Br)c(-c2c(C)cc(C)c(Br)c2C)c(OC(C)=O)c(Br)c1-c1c(C)cc(C)c(Br)c1C"
97 % of control

Request the reported T/C associated with "COc1ccccc1NC(=O)Nc1ccc(Nc2ccccc2)cc1"
101 % of control

Request the reported T/C associated with "CCCCCCCCCCCCCCOC(=O)Cl"
101 % of control

Request the reported T/C associated with "CC(C)(C)OC(=O)C(=[N+]=[N-])C(=O)OC(C)(C)C"
102 % of control

---

# Test system: L1210 leukemia ip in BDF1 mice, survival T/C
# Assay comment: NCI In Vivo Anticancer Drug Screen. Data for tumor model L1210 Leukemia (intraperitoneal) in B6D2F1 (BDF1) mice
# Assay setup: endpoint: mean survival time; dose: 100.0 mg/kg/injection; schedule: Q04DX003 (ip); vehicle: Klucel (hydroxypropylcellulose) (HPC); higher = longer survival
Toxic doses and inconclusive results are not listed.
Each record here notes measured T/C.

Give recorded T/C with L1210 leukemia ip in BDF1 mice, survival T/C for the following molecule: S=C1SC2CCCCC2S1 (stereo not drawn)
103 % of control

Give recorded T/C with L1210 leukemia ip in BDF1 mice, survival T/C for the following molecule: "C[Si](C)Cc1cccc(F)c1"
105 % of control

Give recorded T/C with L1210 leukemia ip in BDF1 mice, survival T/C for the following molecule: "CCCc1cc2c(cc1CS(=O)(=O)c1ccccc1)OCO2"
94 % of control

Give recorded T/C with L1210 leukemia ip in BDF1 mice, survival T/C for the following molecule: "O=[N+]([O-])c1ccc(C=Nc2cccc3ccccc23)s1"
95 % of control

Give recorded T/C with L1210 leukemia ip in BDF1 mice, survival T/C for the following molecule: "Cc1c(Cl)cccc1NS(=O)(=O)c1ccc(Cl)cc1"
102 % of control

Continuing:
Give recorded T/C with L1210 leukemia ip in BDF1 mice, survival T/C for the following molecule: "NCC(=O)c1cccc2ccc[n+]([O-])c12"
95 % of control

Give recorded T/C with L1210 leukemia ip in BDF1 mice, survival T/C for the following molecule: "Cc1ccnc(NC(=O)Nc2cc(F)ccc2F)c1"
97 % of control

Give recorded T/C with L1210 leukemia ip in BDF1 mice, survival T/C for the following molecule: "O=C(CC(O)(C(F)(F)F)C(F)(F)F)c1cccc2ccccc12"
97 % of control

Give recorded T/C with L1210 leukemia ip in BDF1 mice, survival T/C for the following molecule: "COc1nc(N)c(C#N)cc1C#N"
92 % of control

Give recorded T/C with L1210 leukemia ip in BDF1 mice, survival T/C for the following molecule: "CS(=O)(=O)Cc1ccc([N+](=O)[O-])cc1"
103 % of control

Give recorded T/C with L1210 leukemia ip in BDF1 mice, survival T/C for the following molecule: "Oc1ccc(C(c2ccc(O)c(Cl)c2)c2ccccn2)cc1Cl"
102 % of control

Give recorded T/C with L1210 leukemia ip in BDF1 mice, survival T/C for the following molecule: "COC(=O)Nc1ccc(C)c(NC(=O)OC)c1"
104 % of control

Give recorded T/C with L1210 leukemia ip in BDF1 mice, survival T/C for the following molecule: "Cc1ccc(NS(=O)(=O)c2ccc(F)cc2)cc1C"
95 % of control
